Experiment: Solubility of the compound in PBS buffer at pH 7.4
Format: physicochemical
observable: solubility

Return reported solubility; argument: CN1c2ccccc2C(=O)N2CCc3c([nH]c4ccc(OP(=O)(O)O)cc34)C21 (stereo unspecified)
> 1000 µg/mL

###

Test system: A549
Experiment: Antiproliferative activity against human A549 cells assessed as inhibition of cell proliferation incubated for 72 hrs by CCK8 assay
Type: functional, cell-based
Conditions: A549, 72 h
Quick rule for you: IC50 under 5 µM gets TRUE, anything else gets FALSE.

CN1c2ccccc2C(=O)N2CCc3c([nH]c4ccc(OC(=O)[C@@H]5CCCN5)cc34)C21 (stereo partly drawn)	TRUE
CN1c2ccccc2C(=O)N2CCc3c([nH]c4ccc(OC(=O)[C@@H](N)CO)cc34)C21 (stereo partly drawn)	TRUE
CN1c2ccccc2C(=O)N2CCc3c([nH]c4ccc(NC(=O)C(N)Cc5c[nH]c6ccccc56)cc34)C21 (stereo not drawn)	FALSE
CN1c2ccccc2C(=O)N2CCc3c([nH]c4ccc(OC(=O)CCC(=O)OCCN5CCCCC5)cc34)C21 (stereo not drawn)	FALSE
CN1c2ccccc2C(=O)N2CCc3c([nH]c4ccc(OS(N)(=O)=O)cc34)C21 (stereo not drawn)	TRUE
CN1c2ccccc2C(=O)N2CCc3c([nH]c4ccc(NC(=O)CCC(=O)O)cc34)C21 (stereo not drawn)	FALSE
CN1c2ccccc2C(=O)N2CCc3c([nH]c4ccc(NC(=O)C(N)Cc5ccccc5)cc34)C21 (stereo not drawn)	FALSE
CN1c2ccccc2C(=O)N2CCc3c([nH]c4ccc(NC(=O)C(N)CCC(N)=O)cc34)C21 (stereo not drawn)	FALSE

Determine if CN1c2ccccc2C(=O)N2CCc3c([nH]c4ccc(OC(=O)CCC(=O)O)cc34)C21 (stereo not drawn) shows IC50 strictly lower than 5 µM.
FALSE

Determine if CNCC(=O)Nc1ccc2[nH]c3c(c2c1)CCN1C(=O)c2ccccc2N(C)C31 (stereo not drawn) shows IC50 strictly lower than 5 µM.
FALSE

Determine if CN1c2ccccc2C(=O)N2CCc3c([nH]c4ccc(OP(=O)(O)O)cc34)C21 (stereo not drawn) shows IC50 strictly lower than 5 µM.
TRUE

Determine if CN1c2ccccc2C(=O)N2CCc3c([nH]c4ccc(OC(=O)[C@@H](N)COCc5ccccc5)cc34)C21 (stereo partly drawn) shows IC50 strictly lower than 5 µM.
FALSE

Determine if CC(C)CC(N)C(=O)Nc1ccc2[nH]c3c(c2c1)CCN1C(=O)c2ccccc2N(C)C31 (stereo not drawn) shows IC50 strictly lower than 5 µM.
FALSE

###

Test system: HCT-116
Experiment: Antiproliferative activity against human HCT-116 cells assessed as inhibition of cell proliferation incubated for 72 hrs by CCK8 assay
Format: functional, cell-based
Conditions: HCT-116, 72 h
observable: IC50

Record excerpt, results attached:
CN1c2ccccc2C(=O)N2CCc3c([nH]c4ccc(O)cc34)[C@H]21	< 3 nM
CN1c2ccccc2C(=O)N2CCc3c([nH]c4ccc(OC(=O)CCC(=O)OCCN5CCCCC5)cc34)C21 (centres undefined)	< 3 nM
CN1c2ccccc2C(=O)N2CCc3c([nH]c4ccc(NC(=O)C5CCCN5)cc34)C21 (centres undefined)	> 10000 nM

Return reported IC50; argument: CN1c2ccccc2C(=O)N2CCc3c([nH]c4ccc(NC(=O)C5CCC(=O)N5)cc34)C21 (centres undefined)
> 10000 nM

Return reported IC50; argument: CC(C)CC(N)C(=O)Nc1ccc2[nH]c3c(c2c1)CCN1C(=O)c2ccccc2N(C)C31 (centres undefined)
> 10000 nM

Return reported IC50; argument: CC(C)[C@H](N)C(=O)Oc1ccc2[nH]c3c(c2c1)CCN1C(=O)c2ccccc2N(C)C31 (some centres undefined)
< 3 nM

Return reported IC50; argument: CN1c2ccccc2C(=O)N2CCc3c([nH]c4ccc(OC(=O)CCC(=O)O)cc34)C21 (centres undefined)
< 3 nM

Return reported IC50; argument: CN1c2ccccc2C(=O)N2CCc3c([nH]c4ccc(OC(=O)CCC(=O)OCCN5CCOCC5)cc34)C21 (centres undefined)
< 3 nM

Return reported IC50; argument: CN1c2ccccc2C(=O)N2CCc3c([nH]c4ccc(OC(=O)[C@@H](N)CO)cc34)C21 (some centres undefined)
< 3 nM

###

# pIC50 per record follows
Tested on: A549
Assay: Antiproliferative activity against human A549 cells assessed as inhibition of cell proliferation incubated for 72 hrs by CCK8 assay
Assay type: functional, cell-based
Settings: A549, 72 h
The meaning of pIC50 here: minus log10 of the concentration in molar units.

Record excerpt, results attached:
CN1c2ccccc2C(=O)N2CCc3c([nH]c4ccc(NS(N)(=O)=O)cc34)C21 (stereo not given)	5.30
CN1c2ccccc2C(=O)N2CCc3c([nH]c4ccc(NS(C)(=O)=O)cc34)C21 (stereo not given)	6.14

Kindly review the next compound as well.
Return reported pIC50; argument: CC(N)C(=O)Nc1ccc2[nH]c3c(c2c1)CCN1C(=O)c2ccccc2N(C)C31 (stereo not given)
5.31
